method: Lipophilicity, log P of the compound
Assay type: physicochemical
applied.conditions: octanol/water
value.type: logP

CCCCCCCCCCCCCCOC(COc1ccc(-c2noc(=O)[nH]2)cc1)COC(c1ccccc1)(c1ccccc1)c1ccccc1 (racemic) = 11.8
CCCCCCCCCCCCCCO[C@@H](COc1ccc(-c2nc(=O)o[nH]2)cc1)COC(c1ccccc1)(c1ccccc1)c1ccccc1 = 11.8
CCCCCCCCCCCCCCOC(COCCCCCCCCCC)COc1ccc(-c2nc(=O)o[nH]2)cc1 (configuration not stated) = 11.5
CCCCCCCCCOCC(COc1ccc(Cc2noc(=O)[nH]2)cc1)OCCCCCCCCC (racemic) = 9.18
CCCCCCCCCCCCCCOC(COCCCCc1ccccc1)COc1ccc(-c2noc(=O)[nH]2)cc1 (racemic) = 10
CCCCCCCCCCCCCCOC(COc1ccc(-c2noc(=O)[nH]2)cc1)COC(c1ccccc1)c1ccccc1 (racemic) = 10.1
CCCCCCCCCCCCCCCCCCOC(COCc1ccc(C#N)cc1)COc1ccc(Cc2noc(=O)[nH]2)cc1 (racemic) = 11

====

tested.target: Phospholipase A2, membrane associated (Homo sapiens, UniProt P14555)
Sequence (P14555 whole entry): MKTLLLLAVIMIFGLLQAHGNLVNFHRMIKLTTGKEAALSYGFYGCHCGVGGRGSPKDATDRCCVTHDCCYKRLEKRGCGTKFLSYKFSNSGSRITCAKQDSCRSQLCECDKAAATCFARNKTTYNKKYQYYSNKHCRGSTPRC
method: Inhibition of human group IIA PLA2 in [3H]oleate-labeled Escherichia coli membrane by radiometric assay
pIC50: −log10 of the molar value.
value.type: pIC50

Cc1c(C(=O)C(N)=O)c2c(OCC(=O)O)cccc2n1Cc1ccccc1-c1ccccc1 = 6.74
CCCCCCCCCCCCCCOC(COCc1ccc(C#N)cc1)COc1ccc(Cc2nc(=O)o[nH]2)cc1 (racemic) = 5.12
CCCCCCCCCCCCCCOC(COc1ccc(-c2noc(=O)[nH]2)cc1)COC(c1ccccc1)(c1ccccc1)c1ccccc1 (racemic) = 5.70
CCCCCCCCCCCCCCOC(COCCCCCCCCCC)COc1ccc(-c2nc(=O)o[nH]2)cc1 (stereo not drawn) = 6.00
CCCCCCCCCCCCCCCCCCOC(COCc1ccc(C#N)cc1)COc1ccc(Cc2noc(=O)[nH]2)cc1 (racemic) = 5.94

P: CCCCCCCCCCCCCCOC(COCCCCc1ccccc1)COc1ccc(-c2noc(=O)[nH]2)cc1 (racemic)
Q: CCCCCCCCCCCCCCOC(COc1ccc(-c2noc(=O)[nH]2)cc1)COC(c1ccccc1)c1ccccc1 (racemic)
Identify the entry with the larger pIC50. Options: P and Q Give the chosen item's label as your response.
Q
(Q: 5.30, P: 4.59)

====

tested.target: Group 10 secretory phospholipase A2 (Homo sapiens)
Sequence (O15496 whole entry): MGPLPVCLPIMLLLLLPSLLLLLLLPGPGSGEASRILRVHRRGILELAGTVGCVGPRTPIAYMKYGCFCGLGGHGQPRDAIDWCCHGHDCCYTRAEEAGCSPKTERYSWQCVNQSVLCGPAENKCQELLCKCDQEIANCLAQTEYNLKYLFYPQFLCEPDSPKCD
method: Inhibition of human group X PLA2 in [3H]oleate-labeled Escherichia coli membrane by radiometric assay
pIC50: −log10 of the molar value.
value.type: pIC50

CCCCCCCCCCCCCCOC(COCc1ccc(C#N)cc1)COc1ccc(Cc2nc(=O)o[nH]2)cc1 (racemic) = 5.30
CCCCCCCCCCCCCCCCCCOC(COCc1ccc(C#N)cc1)COc1ccc(Cc2noc(=O)[nH]2)cc1 (racemic) = 6.05

A: CCCCCCCCCCCCCCOC(COCCCCCCCCCC)COc1ccc(-c2nc(=O)o[nH]2)cc1 (centres undefined)
B: CCCCCCCCCCCCCCOC(COc1ccc(-c2noc(=O)[nH]2)cc1)COC(c1ccccc1)c1ccccc1 (racemic)
Form: Entry with minimum pIC50 (choose one): A / B Give the chosen item's label as your response.
B
(B: 5.28, A: 6.00)
